Hey, just so you know, these numbers are from ChEMBL document CHEMBL1201862.

Tested on: IGROV-1
Test: NCI tumour cell line growth inhibition, 48 h
Active and inactive are the calls of the source. No stated cut-off is given here; in the data, active = GI50 up to about 1.1 µM and inactive = higher.
Log the outcome using a class from t (active), f (inactive)

COMPOUND	ANSWER LABEL
O=C1C(Cl)N(c2cccc(Cl)c2)C1c1c[nH]c2ccccc12 (stereo unspecified)	f

### Prompt Could you check what this test reported for Cn1c(=O)c2[nH]cnc2n(CC(=O)O)c1=O ?
### Response f

### Prompt What do you get for CO/C=C(/C(=O)OC)c1ccccc1COc1cccc(C(F)(F)F)c1 ?
### Response f

----------
GI50 reference
Tested on: A549
Experiment: NCI tumour cell line growth inhibition, 48 h
Activity calls are given as the source filed them. No stated cut-off is given here; in the data, active = GI50 up to about 1.1 µM and inactive = higher.

COMPOUND	GI50
Cc1ccc(S(=O)(=O)N2CCC[C@@H]2C(=O)O[C@@H]2CCC3CC=CC32)cc1 (stereo partly specified)	34.5 µM (inactive)
COC(=O)C12CC3CC(CC(C(=O)O)(C3)C1)C2	> 100 µM (inactive)
O=C(NCCNCCNC(=O)C(F)(F)F)C(F)(F)F	> 100 µM (inactive)
COC(=O)C1=C(O)C(C(=O)OC)[C@@]2(O)[C@@H](C(=O)OC)C(c3ccc(OC(=O)/C(=C/c4ccc(Cl)cc4)c4ccc(Cl)cc4)cc3)C[C@@H]1[C@@H]2C(=O)OC (stereo partly specified)	77.4 µM (inactive)
COC(=O)C(Cc1ccccc1)NP(=O)(O)OCC1OC(n2cc(I)c(=O)[nH]c2=O)CC1O (stereo unspecified)	> 100 µM (inactive)

Continue with the compound presented below.
### Prompt Requested field: GI50. Item: C=CC[P@]1(=O)O[C@H](c2ccccc2)C(C)N1C(C)C (stereo partly specified)
### Response > 100 µM (inactive)

----------
Tested on: IGROV-1
Experiment: NCI tumour cell line growth inhibition, 48 h
The source made the active and inactive calls. No stated cut-off is given here; in the data, active = GI50 up to about 1.1 µM and inactive = higher.
Answer with one of the outcomes TRUE (active), FALSE (inactive)

// below: answered molecules
MOLECULE	ANSWER LABEL
Cc1ccc(/C=N/Nc2ccc3ccccc3n2)s1	FALSE
NC1=Nc2ccccc2Sc2cccc(F)c21	FALSE
CCC(C)NC(=S)N/N=C(\C)c1ccccn1 (stereo not given)	TRUE
OCCN=C1c2ccccc2C2C(c3ccccc31)C1c3ccccc3C(=NCCO)c3ccccc3C21 (stereo not given)	FALSE
CCOC(=O)C(=O)CC1=Nc2ccccc2SC(c2cccc(C)c2)C1 (stereo not given)	FALSE
COc1ccc(C(=O)N/N=C2\C(=O)c3c(C)cc(C)cc3CC2(C)C)cc1	FALSE

### Prompt Hi, do you know how CC(C)(C)CC(C)(C)NC(=S)NO came out in this test?
### Response FALSE

### Prompt # repeat for CCCCCCCCOCC(CO)OCCCCCCCC (stereo not given)
### Response FALSE

### Prompt Next up: O=P(O)(O)C1CCCC(P(=O)(O)O)N1 (stereo not given)
### Response FALSE

### Prompt Similarly, CN1CCN(C(=S)N(C)C(=O)c2cccs2)CC1 ?
### Response FALSE

----------
Tested on: SN12C
Experiment: NCI tumour cell line growth inhibition, 48 h
The source made the active and inactive calls. Rule as the data show it: active = GI50 up to about 1.1 µM and inactive = higher.
The categories you may choose from are yes for active, no for inactive

Here are 5 compounds together with their reported answers.
COMPOUND	ANSWER LABEL
N=C(N)NCCCC(NC(=O)c1cccc2c(=O)c3ccccc3[nH]c12)C(=O)O (centres undefined)	no
CN1c2ccccc2N(C(=O)c2ccccc2)C(CC(=O)O)c2cccn21 (centres undefined)	no
C[C@]12CC[C@@H]3c4ccc(O)cc4CC[C@H]3[C@@H]1CC[C@@H]2OP(=O)(O)O	no
COc1ccc2nccc(NCCCN3CCN(CCCNc4ccnc5ccc(OC)cc45)CC3)c2c1	yes
Cc1ccccc1NC(=O)Cc1csc(N/N=C2\NC(=O)/C(=C/c3cccc([N+](=O)[O-])c3)S2)n1	no

### Prompt // outcome(item) with item = N#Cc1nc(CN2C(=O)c3ccccc3C2=O)oc1N
### Response no

### Prompt Input Cc1cc(OC(=O)Nc2ccc(Cl)cc2)ccc1C(=S)Nc1ccccc1
### Response no

### Prompt Same again, this time with COC1=C(C)C(=O)C2=C(C1=O)C1C3CC4=C(C(=O)C(OC)=C(C)C4=O)C(CNC(=O)C(C)O)N3C(C#N)C(C2)N1C (centres undefined)
### Response yes

### Prompt Try C=C(CN)CO[Si](C)(C)C(C)(C)C next.
### Response no

### Prompt Moving on to the next compound: O=C(O)Cc1cccc2c1Oc1ccccc1S2
### Response no

### Prompt What do we get for Cc1ccccc1NC(=O)C(=O)Cc1cnc2ccccc2n1 ?
### Response no

### Prompt Try the compound CCOC(=O)C1=C(C)N(C2OC(COC(=O)c3ccccc3)C(OC(=O)c3ccccc3)C2OC(=O)c2ccccc2)C(=S)NC1c1ccccc1 (centres undefined)
### Response no
